- Tested on: Cucumis sativus
- assay_remarks: Inhibition of root growth of Cucumis sativus at 100 mg/L
- Assay type: functional
property: inhibition at 100 µg/mL

Please review the following examples before continuing.
>>> print(df.to_string())
                         compound_structure           system  observed
0  O=c1n(Cc2nnc(SCc3ccccc3)s2)nnn1-c1ccc(Cl)cc1  Cucumis sativus       60%
1              C=CCn1nnn(-c2ccc(Cl)cc2)c1=O  Cucumis sativus       40%

Request: Output inhibition at 100 µg/mL of COc1cccc(Cn2nnn(-c3ccc(Cl)cc3)c2=O)c1
Response: 0%

Request: Output inhibition at 100 µg/mL of CCOC(=O)CSc1nnc(Cn2nnn(-c3ccc(Cl)cc3)c2=O)s1
Response: 50%

Request: Output inhibition at 100 µg/mL of Cc1cccc(Cn2nnn(-c3ccc(Cl)cc3)c2=O)c1
Response: 0%

Request: Output inhibition at 100 µg/mL of O=c1c(Cn2nnn(-c3ccccc3Cl)c2=O)coc2ccccc12
Response: 0%

Request: Output inhibition at 100 µg/mL of O=c1n(Cc2cccc(F)c2)nnn1-c1ccc(Cl)cc1
Response: 50%

Request: Output inhibition at 100 µg/mL of Cc1ccccc1CSc1nnc(Cn2nnn(-c3ccc(Cl)cc3)c2=O)s1
Response: 0%

Request: Output inhibition at 100 µg/mL of CCCSc1nnc(Cn2nnn(-c3ccc(Cl)cc3)c2=O)s1
Response: 50%

Request: Output inhibition at 100 µg/mL of CCSc1nnc(Cn2nnn(-c3ccc(Cl)cc3)c2=O)s1
Response: 0%

Request: Output inhibition at 100 µg/mL of CCCCCCCCSc1nnc(Cn2nnn(-c3ccc(Cl)cc3)c2=O)s1
Response: 30%

Request: Output inhibition at 100 µg/mL of O=c1n(Cc2ccccc2F)nnn1-c1ccc(Cl)cc1
Response: 0%
